The entries below come with measured TGI values attached.
Test system: NCI/ADR-RES ovarian
ASSAY SUMMARY: NCI tumour cell line growth inhibition, 48 h

{"columns": ["COMPOUND", "TGI"],
 "data": [
  ["NC(=O)NCCCC(NC(=O)OCCCCCn1ccc(=O)[nH]c1=O)C(=O)O (stereo not drawn)", "> 100 µM"],
  ["O=C(/C=C/c1ccccc1O)/C=C/c1ccccc1O", "4.88 µM"],
  ["C/C(N=Nc1nc2ccccc2o1)=C1/C=CC=CN1O", "89.1 µM"],
  ["O=C(OCc1ccccc1)N1c2cc([N+](=O)[O-])ccc2C(=O)N2CCC[C@H]2C1O (stereo partly drawn)", "> 100 µM"],
  ["NC(N)=N/N=C/c1c(-c2ccc(Cl)c([N+](=O)[O-])c2)nc2ccccn12", "> 100 µM"],
  ["CC(C)=CC1CC(C)C2(CCC3(C)CC4C(C(=O)CC4(C)O)/C(C=O)=C\\CC32)O1 (stereo not drawn)", "0.443 µM"],
  ["COc1ccc(-n2c(C)nc3c(c(C)nn3-c3ccccc3)c2=O)cc1", "> 100 µM"],
  ["COc1cc(-c2nc3nc(N4CCN(C)CC4)ccc3[nH]2)c(OC)c2[nH]c(COC(C)=O)nc12", "> 100 µM"],
  ["CCOC(=O)/C(=C\\c1ccc(F)cc1)C(C)=O", "> 100 µM"],
  ["COC(=O)[C@]12CC=C3O[C@@H]4OC5(CCCCC5)O[C@@H]4[C@H]3C1C(=O)C=CC2=O (stereo partly drawn)", "38.5 µM"],
  ["CCOC(=O)N(C)C1(c2ccccc2)CCN(CCCC(=O)c2ccc(F)cc2)CC1", "> 100 µM"],
  ["Cc1ccc(/C(=C/C=C(C#N)C#N)Sc2ccccn2)cc1", "13.2 µM"],
  ["c1ccc(C2=C(c3ccccc3)P(c3ccccc3)C2)cc1 (stereo not drawn)", "> 100 µM"]
]}

* * *

System: UACC-257 melanoma
ASSAY SUMMARY: NCI tumour cell line growth inhibition, 48 h
The entries below come with measured TGI values attached.

{"columns": ["MOLECULE", "TGI"],
 "data": [
  ["COC(=O)c1ccccc1CC(Cc1ccccc1)C(=O)OC (centres undefined)", "> 100 µM"],
  ["COc1ccc(C(O)/C(=C/n2ccnc2)c2ccccc2)cc1OC (centres undefined)", "> 100 µM"],
  ["O=C(O)CCCNS(=O)(=O)c1ccc2ccccc2c1", "> 100 µM"],
  ["NC(=O)NCCSC1CCCCC1O (centres undefined)", "> 100 µM"],
  ["Cc1ccccc1C(C(=O)NC1CCCCC1)N(C(=O)Cn1ccnc1C)c1cccc(F)c1 (centres undefined)", "> 100 µM"],
  ["CCOC(=O)c1cnc2cc3cccccc3n2c1=O", "> 100 µM"],
  ["COc1nc2[nH]ccc2c(=O)n1C", "> 100 µM"],
  ["NC(=O)NCCCC(NC(=O)OCCCCCn1ccc(=O)[nH]c1=O)C(=O)O (centres undefined)", "> 100 µM"],
  ["Cc1ccc2nc(Cl)c(/C=N/N3C(=O)/C(=C/c4ccc(N(C)C)cc4)N=C3c3ccccc3)cc2c1", "> 100 µM"],
  ["O=C(NC1(C(=O)O)CC1c1ccccc1)c1ccccc1 (centres undefined)", "> 100 µM"],
  ["O=C(OCc1ccccc1)N1c2cc([N+](=O)[O-])ccc2C(=O)N2CCC[C@H]2C1O (some centres undefined)", "> 100 µM"],
  ["Cn1ccc(C(=O)NCCCCCNC(=O)c2ccn(C)c(=O)c2O)c(O)c1=O", "> 100 µM"],
  ["COc1ccc(/C=C\\c2cc(OC)c(OC)c(OC)c2)cc1OCC(=O)Nc1nc2ccc(OC(F)(F)F)cc2s1", "> 100 µM"],
  ["c1cncc(CNc2ncn[nH]2)c1", "> 100 µM"],
  ["CC(=O)OC12CC(C)C3(O)C4C=C(C)C(=O)[C@@]4(O)CC(CO)=C[C@H]3C1C2(C)C (some centres undefined)", "> 1000 µM"],
  ["CO/C(=N\\N=C\\c1cccc(C(F)(F)F)c1)c1ccncc1", "> 100 µM"],
  ["O=C1/C(=C/c2ccco2)NC(=S)N1CN1CCOCC1", "> 100 µM"],
  ["COc1ccc(/C=N/n2c(Cc3ccc(Cl)cc3)n[nH]c2=O)c(OC)c1", "> 100 µM"],
  ["CN(c1ccccc1Cl)S(=O)(=O)c1ccccc1[N+](=O)[O-]", "> 100 µM"],
  ["CN1CC2CC(C1)c1cccc(=O)n1C2 (centres undefined)", "> 100 µM"],
  ["C=CCN(CC=C)CC(C(C)=O)C(c1ccccc1)c1c(O)c2ccccc2oc1=O (centres undefined)", "> 100 µM"],
  ["COc1ccc(C2=C(c3cc(OC)c(OC)c(OC)c3)C(=O)OC2)cc1OC", "> 81.1 µM"],
  ["C#CCOC(=O)C(N)CCCN=C(N)N (centres undefined)", "> 100 µM"],
  ["O=CN1CCN(C=S)CC1", "> 100 µM"]
]}

* * *

The entries below come with measured TGI values attached.
System: PC-3 prostate
ASSAY SUMMARY: NCI tumour cell line growth inhibition, 48 h
ENDPOINT NAME: TGI (µM)

{"columns": ["COMPOUND", "TEST TARGET", "BOUND OPERATOR", "EXPERIMENTAL VALUE"],
 "data": [
  ["COc1cc2c(cc1OCCCN1CCN(c3cc(=O)oc4c(C)c(OC)ccc34)CC1)N=C[C@@H]1CCCN1C2=O", "PC-3 prostate", "=", 12.8],
  ["Cc1n(CC(=O)c2ccccc2)nc2sc(N)n[n+]12", "PC-3 prostate", ">", 100],
  ["C#CCOC(=O)C(N)CCCN=C(N)N (configuration not stated)", "PC-3 prostate", ">", 100],
  ["COc1ccc(/C=N/n2c(Cc3ccc(Cl)cc3)n[nH]c2=O)c(OC)c1", "PC-3 prostate", ">", 100],
  ["NC1=C(Cl)C(=O)c2ccccc2C1=O", "PC-3 prostate", "=", 6],
  ["Cc1ccc2nc(Cl)c(/C=N/N3C(=O)/C(=C/c4ccc(N(C)C)cc4)N=C3c3ccccc3)cc2c1", "PC-3 prostate", ">", 100],
  ["N#C[C@H]1Nc2ccccc2[C@@H](O)C1O (some centres not stated)", "PC-3 prostate", ">", 100],
  ["CCCCCCCCC/C=C1\\CC(CO)(COC(=O)c2ccccc2)OC1=O (configuration not stated)", "PC-3 prostate", "=", 34.7],
  ["C=C(C)[C@@H]1CC[C@]2(C(=O)NCCNCCNCCN)CC[C@]3(C)[C@H](CC[C@@H]4[C@@]5(C)CCC(=O)C(C)(C)[C@@H]5CC[C@]43C)[C@@H]12", "PC-3 prostate", "=", 13.1],
  ["Cc1ccccc1C(C(=O)NC1CCCCC1)N(C(=O)Cn1ccnc1C)c1cccc(F)c1 (configuration not stated)", "PC-3 prostate", ">", 100],
  ["O=[N+]([O-])c1cccc(-c2cc(-c3cc(Br)ccc3O)[nH]n2)c1", "PC-3 prostate", "=", 7.7],
  ["O=C(O)/C=C/C(=O)O", "PC-3 prostate", ">", 100]
]}

* * *

The entries below come with measured GI50 values attached.
Tested on: OVCAR-8 ovarian
ASSAY SUMMARY: NCI tumour cell line growth inhibition, 48 h

{"columns": ["COMPOUND", "GI50"],
 "data": [
  ["OCc1ccc(Oc2c3ccccc3nc3occc23)cc1", "28.3 µM"],
  ["O=C1CC/C(=C\\COc2ccc3ccc(=O)oc3c2)O1", "16.6 µM"],
  ["Cc1ccccc1C(C(=O)NC1CCCCC1)N(C(=O)Cn1ccnc1C)c1cccc(F)c1 (configuration not stated)", "> 82.6 µM"],
  ["COc1cc(OC)cc(-c2cncn2-c2ccc(-c3nc4cc(OC)cc(OC)c4s3)cc2)c1", "14.5 µM"],
  ["C=C(C)[C@@H]1CC[C@]2(C(=O)NCCNCCNCCN)CC[C@]3(C)[C@H](CC[C@@H]4[C@@]5(C)CCC(=O)C(C)(C)[C@@H]5CC[C@]43C)[C@@H]12", "8.41 µM"],
  ["CN1C(=O)C(c2c[nH]c3ccccc23)=C(c2c(-c3c[nH]c4ccccc34)[nH]c3ccccc23)C1=O", "3.2 µM"],
  ["Cc1ccc(C[P+](c2ccccc2)(c2ccccc2)c2ccccc2)cc1", "0.781 µM"]
]}

* * *

Tested on: NCI-H23 lung
ASSAY SUMMARY: NCI tumour cell line growth inhibition, 48 h
The entries below come with measured GI50 values attached.

{"columns": ["SMILES CODE", "GI50"],
 "data": [
  ["O=C1C=CC(=O)c2c1ncc1c2nc2sccn21", "22.2 µM"],
  ["COc1cc(/C=C2\\C(=O)Nc3ccccc32)cc(OC)c1OC", "17.9 µM"],
  ["COc1cc2c3c(n(C)c(=O)c2cc1OC)-c1cc2c(cc1/C3=C/[C@H](N)CCCCN)OCO2", "2.52 µM"]
]}
